Test: Compound cytotoxicity, XTT-based colorimetric assay
Type: cell-based
Settings: human, uninfected MT2 cells, day 4, XTT
Procedure: Compound cytotoxicity and the corresponding CC50 values were determined using the same protocol as described in the antiviral assay except that uninfected cells were used. Cytotoxicity was assessed on day 4 in uninfected MT2 cells by using a XTT (2,3-bis[2-Methoxy-4-nitro-5-sulfophenyl]-2H-tetrazolium-5-carboxyanilide inner salt)-based colorimetric assay (Sigma-Aldrich, St Louis, Mo.).
Provide the recorded CC50 at 4 days for the entries that follow.
Numbers only, in µM.

Known results for compounds:
Compound	Scale Unit	CC50 at 4 days
COc1ccc(N(C)C(=O)[C@H](Cc2ccccc2)NC(=O)Cn2c(=O)n(CC(=O)N[C@@H](Cc3ccccc3)C(=O)N(C)c3ccc(OC)cc3)c3cc([N+](=O)[O-])ccc32)cc1 [Example 87]	µM	11.1
COc1ccc(N(C)C(=O)[C@H](Cc2ccccc2)Nc2ncnc(N[C@@H](Cc3ccccc3)C(=O)N(C)c3ccc(OC)cc3)n2)cc1 [Example 109]	µM	65.4

Each compound below has a recorded value; state its CC50 at 4 days.
1. COc1ccc(N(C)C(=O)[C@H](Cc2cc(F)cc(F)c2)NC(=O)CN2c3ccccc3N(CC(=O)N[C@@H](Cc3cc(F)cc(F)c3)C(=O)N(C)c3ccc(OC)nc3)S2(=O)=O)cn1 [Example 197]
2. COc1ccc(N(C)C(=O)[C@H](Cc2cc(F)cc(F)c2)NC(=O)Cn2c(=O)n(CC(=O)N[C@@H](Cc3cc(F)cc(F)c3)C(=O)N(C)c3ccc(OC)cc3)c3cc(F)ccc32)cc1 [Example 76]
3. COc1ccc(N(C)C(=O)[C@H](Cc2cc(F)cc(F)c2)NC(=O)C(C)n2c(=O)n(C(C)C(=O)N[C@@H](Cc3cc(F)cc(F)c3)C(=O)N(C)c3ccc(OC)cc3)c3ccccc32)cc1 (single isomer, unassigned) [Example 132]
4. CN(C(=O)[C@H](Cc1cc(F)cc(F)c1)Nc1ccnc(N[C@@H](Cc2cc(F)cc(F)c2)C(=O)N(C)c2ccc3scnc3c2)n1)c1ccc2scnc2c1 [Example 146]
5. COc1ccc(N(C)C(=O)[C@H](Cc2ccccc2)NC(=O)c2nc[nH]c2C(=O)N[C@@H](Cc2ccccc2)C(=O)N(C)c2ccc(OC)cc2)cc1 [Example 59]
6. COc1ccc(N(C)C(=O)[C@H](Cc2ccccc2)NC(=O)Cc2cccc(CC(=O)N[C@@H](Cc3ccccc3)C(=O)N(C)c3ccc(OC)cc3)c2)cc1 [Example 42]

[9.3, 11.4, 7.3, 30.6, 11, 40.7]
